Assay: yeast display, Sf9 membrane polyspecificity reagent, FACS + sequencing; frameworks hold sequencing errors
READOUT TYPE: polyreactivity (PSR sort gate)

Solved entries (count: 8):
SEQUENCE: QVQLVESGGGLVQAGGSLRLSCAASGSIFKYNPMGWDRQAPGKERELVAAITYRGASTYYADSVKGRFTISRDNAKNTVYLQMNSLKPEDTAVYYCNAKVRKSRFYYWGQGTQVTVSS
polyreactivity (PSR sort gate): high polyreactivity
//
SEQUENCE: QVQLVESGGGLVQAGGSLRLSCAASGITFYGYAMGWSRPAPGKERELVAVITSSGSSTYYADSVKGRFTISRDKAKNTVYVQMNSLKPEDTAVYDCNARPGRRSLRSRTYDYWGQGTQVTVSS
polyreactivity (PSR sort gate): high polyreactivity
//
SEQUENCE: QVQLVESGGGLVQAGGSLRLSCAASGSTFQRNAMGWYRQAPGKERELVAVITRRGASTYYADSVKGRFTISRDNAKNTVYLQMKSLKPEDTAVYYCNKVPYGRDHHLLFDYWGQGTQVTVSS
polyreactivity (PSR sort gate): high polyreactivity
//
SEQUENCE: QVQLVESGGGLVQAGGSLRLSCAASGRIFAYYAMGWYRQAPGKERELVAAITWRGGRTYYADSVKGRFTISRDNAKTTVYLQMNSLKPEDTAVYYCAARGYYSTYKLATDDYWGQGTQVTVSS
polyreactivity (PSR sort gate): high polyreactivity
//
SEQUENCE: QVQLVESGGGLVQAGGSLRLSCAASGYTFKYYTMGWYRQAPGKESELVAAITRSGGSTYYADSVKGRFTISRDNAKNTVYLQINSLKPEDTAVYYCAARAAYKQPVSFDYWGQGTQVTVSS
polyreactivity (PSR sort gate): high polyreactivity
//
SEQUENCE: QVQLVESGGGLVQAGGSLLLICAASGSTFYLNAMGWYRQAPGKERELVAAITGRSGSTYYADSVKVRFTISRDNAKNTVYLQMNSLKPEDTAVYYCAADYSPWRSDFDYWGQGTQVTVSS
polyreactivity (PSR sort gate): low polyreactivity
//
SEQUENCE: QVQLVESGGGLVQAGGSLRLSCAASGSIFSRYAMGWYRQAPGKERELVAAISSSGSSTYYADSVKGRFTISRDNAKNTVYLQMNSLKPEDTAVYYCAATGYPRFGYWGQGTQVTVSS
polyreactivity (PSR sort gate): high polyreactivity
//
SEQUENCE: QVQLVESGGGLVQAGGSLRLSCAASGRIFSNNAMGWYRQAPGKERELVAAISSSGSTYYADSVKGRFTISRDNAKNTVYLLMNSLKPEDTAVYYCAVVYGYPYLRGYVYGFNYWGQGTQVTVSS
polyreactivity (PSR sort gate): low polyreactivity

Please look up its polyreactivity (PSR sort gate): QVQLVESGGGLVQAGGSLRLSCAASGSTFFRYAMGWYRHAPVKERELVAAISASGGRTYYADSVKGRFTISRDNAKNTVYLLMNSLKPEDTAVYYCNRQYGPYQYYYWGQGTQVTVSS
high polyreactivity

Would you mind doing QVQLVESGGGLVQAGGSLRLSCAASGITFLPYAMGWYRPAPGKERELVAAITRGGGSTYADSVKGRFTISRDNAKNTVYLQMNSLKPEDTAVYYCAKRYGRVSWYEDYDYWGQGTQVTVSS as well?
low polyreactivity

Next: QVQLVESGGGLDQAGGSLRLSCAASGGIFQKYAMGWYRQAPGQERELVAAISYSTTRTYYADSVKGRFTISRDNAKKTVYLQMNSLKPEDTAVYYCAARGYFWSSYKYDYWGQGTQVTVSS
high polyreactivity

Where do these numbers come from? They come from the nanobody polyreactivity screen of Harvey et al. (2022).
